# Target entity: T1, human RSPO3 (human, UniProt Q9BXY4 22-272)
# T1 construct: Recombinant human RSPO3 protein (Genentech); also called huRSPO3; hRSPO3
# T1 sequence: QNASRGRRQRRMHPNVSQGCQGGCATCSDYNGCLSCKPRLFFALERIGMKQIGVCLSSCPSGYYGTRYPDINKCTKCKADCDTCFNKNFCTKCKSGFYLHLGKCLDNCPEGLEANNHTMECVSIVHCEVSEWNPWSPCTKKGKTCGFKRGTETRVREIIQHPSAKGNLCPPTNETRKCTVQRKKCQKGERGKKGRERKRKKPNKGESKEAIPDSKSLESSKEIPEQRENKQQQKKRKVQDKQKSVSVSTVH
# Procedure summary: SPR (BIAcore T200), RSPO3 immobilized, antibody injected, 25 C, 1:1 Langmuir
Quantity name: kon (M⁻¹ s⁻¹)
Report only the number, with the unit M⁻¹ s⁻¹ understood.

The examples below pair each entry with its known result.
>  <Binder>
chimeric 11C10 (antibody, V domains shown, Chimeric counterpart with the rat 11C10 variable domains) VH: EVQLVESGGGLVQPGRSLKLSCAASGFTFSDYDMAWVRQAPKKGLEWVATIIYDGSRTYYRDSVKGRFTISRANAKSTLYLQMDSLRSEDTATYYCATHDKTFDYWGQGVMVTVSS VL: DIQMTQSPASLSASLGETVTIECRASEDIYSDLAWYQQKPGNSPQLLIYDVNSLIHGVPSRFSGSGSGTQFSLKINNLQSEDVASYFCQQYDNYPNTFGAGTKLELK

>  <Unit of measure>
M⁻¹ s⁻¹

>  <kon>
425000

$$$$
>  <Binder>
chimeric 15F3 (antibody, V domains shown, Chimeric counterpart with the rat 15F3 variable domains) VH: EVQLVESGGGLVQPGRSLKLSCAASGFTFSDYDMAWVRQAPKKGLEWVATIIYDGSRAYFGDSVRGRFTVSRDNTKSTLYLQMDSLRSEDTATYYCTAHDRSFDYWGQGVMVTVSS VL: DIQMTQSPASLSASLGETVSIECLVSEDISNDFVWYQQKSGKSPQLLIYAASRLQDGVPSRFSGSGSGTRFSLRISGMQPEDEAEYFCQQSYKYPPTFGAGTKLELK

>  <Unit of measure>
M⁻¹ s⁻¹

>  <kon>
179000

$$$$
>  <Binder>
hu11C10.L5H1 (antibody, V domains shown, CDR graft light chain L5 with H1; also called humanized 11C10) VH: EVQLVESGGGVVQPGRSLRLSCAASGFTFSDYDMAWVRQAPGKGLEWVATIIYDGSRTYYRDSVKGRFTISRDNSKNTLYLQMNSLRAEDTAVYYCATHDKTFDYWGQGTMVTVSS VL: DIQLTQSPSSLSASVGDRVTITCRASEDIYSDLAWYQQKPGKAPKLLIYDVNSLIHGVPSRFSGSGSGTDFTLTISSLQPEDFATYYCQQYDNYPNTFGQGTKLEIK

>  <Unit of measure>
M⁻¹ s⁻¹

>  <kon>
480000

$$$$
>  <Binder>
anti-RSPO3 antibody 5D6 (WO2015/058132) (antibody, V domains shown) VH: EVQLQESGPSLVKPSQTLSLTCSVTGDSITSGYWNWIRKFPGNKFEYMGYISYSGKTYQNPSLKSRISITRDTSKNQYHLQLNSVTTEDTATYYCATYYGYGGPWFAYWGQGTLVTVSA VL: DIVLTQSPSSMYASLGERVTITCKASQDIDSYLSWFQQKPGKSPKTLIYLTNRLVDGVPSRFSGSGSGQDYSLTISSLEYEDMGIYYCLHYDEFPLTFGAGTKLEIK

>  <Unit of measure>
M⁻¹ s⁻¹

>  <kon>
261000

$$$$
>  <Binder>
hu4A6.L4H2 (antibody, V domains shown, CDR graft only (L4, H2); also called humanized 4A6) VH: EVQLVESGGGVVQPGRSLRLSCAASGFTFSDYDMAWVRQAPGKGLEWVATIIYDGSRTYYRDSVKGRFTISRDNSKNTLYLQMNSLRAEDTAVYYCAAHDRSFDYWGQGTMVTVSS VL: DIQMTQSPSSLSASVGDRVTITCLASEDISNDLVWYQQKPGKAPKLLIYAASRLQDGVPSRFSGSGFGTDFTLTISSLQPEDFATYYCQQSYKYLPTFGQGTKLEIK

>  <Unit of measure>
M⁻¹ s⁻¹

>  <kon>
195000

$$$$

The binder listed as hu15F3.L4H2 (antibody, V domains shown, CDR graft only (L4, H2); also called humanized 15F3) VH: EVQLVESGGGVVQPGRSLRLSCAASGFTFSDYDMAWVRQAPGKGLEWVATIIYDGSRAYFGDSVRGRFTISRDNSKNTLYLQMNSLRAEDTAVYYCTAHDRSFDYWGQGTMVTVSS VL: DIQMTQSPSSLSASVGDRVTITCLVSEDISNDFVWYQQKPGKAPKLLIYAASRLQDGVPSRFSGSGSGTDFTLTISSLQPEDFATYYCQQSYKYPPTFGQGTKLEIK has a reported kon of 196000

Reported kon of chimeric 4A6 (antibody, V domains shown, Chimeric counterpart of hu4A6 with the rat 4A6 variable domains) VH: EVQLVESGGGSVQPGRSLKVSCAASGFTFSDYDMAWVRQAPKKGLEWVATIIYDGSRTYYRDSVKGRFTLSRDNTKSTLCLQMDSLRSEDTATYYCAAHDRSFDYWGQGIMVTVSS VL: DIQMTQSPASLSASLGETVSIECLASEDISNDLVWYQQKSGKSPQLLIYAASRLQDGVPSRFSGSGFGTRFSLKISGMQPEDEADYFCQQSYKYLPTFGAGTKLGLK : 161000

Every entry's value here was drawn from patent US20170319688A1.
